Test system: MRSA ATCC BAA-41
Test: MIC determination in broth
Assay type: cell-based, Staphylococcus aureus
Conditions: STIP3 variants, highest conc. tested 100 μg/mL; cation-adjusted MH broth, ~10^5 CFU/mL, 2-fold dilution series, 37°C, 16 h
The following sequences are shown together with reported MIC, S. aureus ATCC BAA 41 (SCCmec II) values.

Identify measured MIC, S. aureus ATCC BAA 41 (SCCmec II) associated with TVGGLVKWILAAVKKFA [STIP3-12, rationally designed STIP3-1 variant]
25 µg/mL

More entries:
Identify measured MIC, S. aureus ATCC BAA 41 (SCCmec II) associated with TVKGLVKWILNVVKKFA [STIP3-14, rationally designed STIP3-1 variant]
25 µg/mL

Identify measured MIC, S. aureus ATCC BAA 41 (SCCmec II) associated with TVXALVXWILXTVAXFA [STIP3-22, rationally designed STIP3-1 variant with L-ornithine]
25 µg/mL

---

The following substances are shown together with reported MIC, S. aureus ATCC 29213 values.
Tested on: S. aureus ATCC 29213
Assay: MIC determination in broth
Assay type: cell-based, Staphylococcus aureus
Conditions: STIP3 variants, highest conc. tested 100 μg/mL; cation-adjusted MH broth, ~10^5 CFU/mL, 2-fold dilution series, 37°C, 16 h
No end group written: not given here.
Numeric answer only, unit µg/mL assumed.

A selection of reference data follows.
Identify measured MIC, S. aureus ATCC 29213 associated with TVRALVKWILRTVAKFA [STIP3-20, rationally designed STIP3-1 variant]
25

Identify measured MIC, S. aureus ATCC 29213 associated with TVKALVKWILKTVAKFW [STIP3-21, rationally designed STIP3-1 variant]
25

Identify measured MIC, S. aureus ATCC 29213 associated with TVKGLVKWILNVVKKFA [STIP3-14, rationally designed STIP3-1 variant]
25

Identify measured MIC, S. aureus ATCC 29213 associated with TVKGLVKWILATVKKFA [STIP3-16, rationally designed STIP3-1 variant]
100

Identify measured MIC, S. aureus ATCC 29213 associated with TVGGLVKWILAAVKKFA [STIP3-12, rationally designed STIP3-1 variant]
25

Identify measured MIC, S. aureus ATCC 29213 associated with TVRALVRWILRTVARFA [STIP3-23, rationally designed STIP3-1 variant]
25

Identify measured MIC, S. aureus ATCC 29213 associated with TVGGLVKWILKAVKKFA [STIP3-13, rationally designed STIP3-1 variant]
25

Identify measured MIC, S. aureus ATCC 29213 associated with TVKGLVKWILNVVKKFA-NH2 [STIP3-30, rationally designed STIP3-1 variant, C-terminal amide]
12.5

Identify measured MIC, S. aureus ATCC 29213 associated with TVGGLVKWILNTVKKFA [STIP3-4, rationally designed STIP3-1 variant]
100

Identify measured MIC, S. aureus ATCC 29213 associated with TVXALVXWILXTVAXFA [STIP3-22, rationally designed STIP3-1 variant with L-ornithine]
25

More entries:
Identify measured MIC, S. aureus ATCC 29213 associated with TVGGLVKWILDTFKKFA [STIP3-11, rationally designed STIP3-1 variant]
50

Identify measured MIC, S. aureus ATCC 29213 associated with TVKKLVKWILKTVKKFA [STIP3-18, rationally designed STIP3-1 variant]
100

Identify measured MIC, S. aureus ATCC 29213 associated with TVAGLVKWILATVKKFA [STIP3-15, rationally designed STIP3-1 variant]
25

Identify measured MIC, S. aureus ATCC 29213 associated with TVKALVKWILKTVAKFW-NH2 [STIP3-31, rationally designed STIP3-1 variant, C-terminal amide]
25

Identify measured MIC, S. aureus ATCC 29213 associated with TVGGLVKWILDVVKKFA [STIP3-9, rationally designed STIP3-1 variant]
25

Identify measured MIC, S. aureus ATCC 29213 associated with TVGGLVKWILATVKKFA [STIP3-2]
100

Identify measured MIC, S. aureus ATCC 29213 associated with TVGGLVKWILDTVKKFA-NH2 [STIP3-27, C-terminally amidated STIP3-1]
50

Identify measured MIC, S. aureus ATCC 29213 associated with TVKALVKWILKTVAKFA [STIP3-19, rationally designed STIP3-1 variant]
50

Identify measured MIC, S. aureus ATCC 29213 associated with TVGGLVKWILKTVKKFA [STIP3-3, rationally designed STIP3-1 variant]
25

Identify measured MIC, S. aureus ATCC 29213 associated with TVGGLVKWILDWVKKFA [STIP3-10, rationally designed STIP3-1 variant]
100

Identify measured MIC, S. aureus ATCC 29213 associated with TVGGLVKWILATVKKFA-NH2 [STIP3-28, rationally designed STIP3-1 variant, C-terminal amide]
25

Identify measured MIC, S. aureus ATCC 29213 associated with TVGGLVKWILKTVKKFA-NH2 [STIP3-29]
12.5
